- System: UniProt:P14324
- Sequence (whole entry): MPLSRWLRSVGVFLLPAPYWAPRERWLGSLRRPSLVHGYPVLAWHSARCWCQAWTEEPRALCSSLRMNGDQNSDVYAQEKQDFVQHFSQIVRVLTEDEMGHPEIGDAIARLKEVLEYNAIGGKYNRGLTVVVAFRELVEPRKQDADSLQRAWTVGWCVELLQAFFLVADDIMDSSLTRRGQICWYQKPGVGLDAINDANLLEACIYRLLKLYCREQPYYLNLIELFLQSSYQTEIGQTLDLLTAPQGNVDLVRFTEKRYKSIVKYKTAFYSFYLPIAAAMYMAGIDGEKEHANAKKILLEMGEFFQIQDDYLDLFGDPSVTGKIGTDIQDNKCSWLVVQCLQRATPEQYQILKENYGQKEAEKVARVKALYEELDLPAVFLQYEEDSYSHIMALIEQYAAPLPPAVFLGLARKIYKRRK
- Procedure Text: Inhibition of human recombinant N-terminal His6-tagged FPPS transfected in Escherichia coli BL21 (DE3) cells using GPP and [3H]-IPP as substrate at 10 uM incubated for 10 mins prior to substrate addition measured after 20 mins by liquid scintillation counting analysis
- Assay type: biochemical
Assay Endpoint: inhibition (%)
Report only the number, with the unit % understood.

smiles_record=O=P(O)(O)C(Nc1ncnc2sc(-c3ccccc3)cc12)P(=O)(O)O quantitative_readout=75
smiles_record=O=P(O)(O)C(Nc1ncnc2sccc12)P(=O)(O)O quantitative_readout=75

Problem: Returns the measured inhibition for the input molecule. Input: O=P(O)(O)C(Nc1nc(-c2ccccc2)nc2sccc12)P(=O)(O)O
Result: 75

----------
- System: Farnesyl pyrophosphate synthase (Homo sapiens, UniProt P14324)
- Procedure Text: Inhibition of human FPPS
Assay Endpoint: IC50

Problem: IC50 lookup needed for CC(C)=CCC/C(C)=C/CC(C/C=C(\C)CCC=C(C)C)(P(=O)(O)O)P(=O)(O)O [DIGERANYL BISPHOSPHONATE] , thanks.
Result: > 10 µM

----------
- System: UniProt P14324
- Procedure Text: Inhibition of human recombinant N-terminal His6-tagged FPPS transfected in Escherichia coli BL21 (DE3) cells using GPP and [3H]-IPP as substrate incubated for 10 mins prior to substrate addition measured after 20 mins by liquid scintillation counting analysis
Catalogue of compounds with associated pIC50
When answering, recall that pIC50 equals minus log10 of the concentration in mol/L, and write that number alone.

Problem: Field request: pIC50 | item: O=P(O)(O)C(Nc1ncnc2sc(-c3ccc4ccccc4c3)cc12)P(=O)(O)O
Result: 6.60

Problem: Need pIC50 of Cc1ccc(-c2cc3c(NC(P(=O)(O)O)P(=O)(O)O)ncnc3s2)cc1 , thanks.
Result: 6.41
